biological target: T1, human SIRPβL/SIRPβ1v3 extracellular domain + His-tag (NP_001129316.1) (human, UniProt Q5TFQ8 30-371); experiment: SPR, Ab captured, ECD-His analyte
T1 construct: also called hSIRPβ1v3; HuSIRPβ1v3
T1 sequence (Q5TFQ8 other isoform, or with tags, fused parts or gaps): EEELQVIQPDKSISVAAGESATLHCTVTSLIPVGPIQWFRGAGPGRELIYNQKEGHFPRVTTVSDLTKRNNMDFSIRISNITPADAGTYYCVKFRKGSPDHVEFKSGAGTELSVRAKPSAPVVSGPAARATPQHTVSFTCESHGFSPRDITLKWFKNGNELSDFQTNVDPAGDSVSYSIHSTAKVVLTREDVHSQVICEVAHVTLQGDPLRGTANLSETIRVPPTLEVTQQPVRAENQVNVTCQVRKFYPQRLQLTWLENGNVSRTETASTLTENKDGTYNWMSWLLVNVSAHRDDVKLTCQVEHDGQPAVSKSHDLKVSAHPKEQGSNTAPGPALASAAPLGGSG
PARAMETER: Kd
Please make sure the unit comes right after the number.

The cases that follow already have their Kd on record.
(Q) Query (binder): Antibody E12 (antibody, human IgG1, kappa, L234A L235A, V domains shown) VH: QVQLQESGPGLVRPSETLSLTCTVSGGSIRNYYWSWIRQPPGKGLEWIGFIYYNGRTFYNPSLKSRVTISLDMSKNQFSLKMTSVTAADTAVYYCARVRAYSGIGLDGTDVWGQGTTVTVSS VL: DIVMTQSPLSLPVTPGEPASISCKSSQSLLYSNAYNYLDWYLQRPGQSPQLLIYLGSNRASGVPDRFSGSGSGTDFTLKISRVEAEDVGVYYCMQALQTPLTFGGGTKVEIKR ; field requested: Kd
(A) 3.43 nM

(Q) Please look up its Kd: Antibody E13 (antibody, human IgG1, kappa, L234A L235A, V domains shown) VH: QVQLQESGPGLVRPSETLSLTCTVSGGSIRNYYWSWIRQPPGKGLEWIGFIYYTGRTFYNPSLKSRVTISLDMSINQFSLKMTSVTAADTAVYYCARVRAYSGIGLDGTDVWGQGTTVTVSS VL: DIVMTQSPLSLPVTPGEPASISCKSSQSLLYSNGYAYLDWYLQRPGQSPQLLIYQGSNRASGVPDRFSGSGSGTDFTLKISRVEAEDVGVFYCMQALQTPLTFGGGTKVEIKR
(A) 4.17 nM

New cases:
(Q) I have this binder here, Antibody E20 (antibody, human IgG1, kappa, L234A L235A, V domains shown) VH: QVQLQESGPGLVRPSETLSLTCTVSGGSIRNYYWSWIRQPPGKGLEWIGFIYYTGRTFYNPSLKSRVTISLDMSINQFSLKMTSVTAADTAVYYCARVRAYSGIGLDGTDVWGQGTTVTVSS VL: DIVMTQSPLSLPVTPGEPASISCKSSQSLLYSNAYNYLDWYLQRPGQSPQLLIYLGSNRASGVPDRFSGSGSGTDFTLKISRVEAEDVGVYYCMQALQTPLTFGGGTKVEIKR , and I need its recorded Kd.
(A) 8.48 nM
